# Condition Parameters: in acetonitrile, 290.65 K
Quantity: solubility (mole fraction)
Give the figure by itself; no unit, no explanation.

The reported value for Cc1c(C(=O)O)cccc1[N+](=O)[O-] in terms of solubility (mole fraction) is 0.0107

* * *

# Condition Parameters: in 2-butanone, 285.65 K
Quantity: solubility (mole fraction)
Output: the number by itself.

# solubility (mole fraction) (compound: Cc1c(C(=O)O)cccc1[N+](=O)[O-] ) is 0.0544

* * *

# Condition Parameters: in n-propanol, 310.65 K
Quantity: solubility (mole fraction)
Answer with the value's number alone.

Looking up Cc1c(C(=O)O)cccc1[N+](=O)[O-] , I see its solubility (mole fraction) listed as 0.0404
